Record form. Attribute: cytotoxicity at 10 µM. Fill in for each entry.
assay: Toxicity liver stage against HepG2, at 10uM; assay type: cell-based; design: test concentration 10 uM, cell line HepG2-A16-CD81EGFP; details: human, HepG2-A16-CD81EGFP cells; read-out: INHIBITION
Reply numerically in %, unit not repeated.

Entry under test: CCOCc1ccccc1NC(=O)NCC(C)(O)c1cc(C)oc1C (stereo not given) . Its cytotoxicity at 10 µM was -1.48

compound CCc1nsc(N2CCCN(CC(=O)N(C)C3CC3)CC2)n1 , cytotoxicity at 10 µM observed: -9.43

Sample CN(C1CCCC1)C(C)(C)C(=O)NCCNC(N)=O ; cytotoxicity at 10 µM observed: -46.3

Value of cytotoxicity at 10 µM reported for the compound CCc1nnc(NC(=O)CCN2CC=C(c3cnn(C)c3)CC2)s1 is 2.66

Recorded cytotoxicity at 10 µM (compound COC(=O)CCCNC(=O)Nc1ccccc1OC ): 6.45

The recorded cytotoxicity at 10 µM for COCCCSc1ccc(NCc2cscn2)cc1 is 6.43

Query N#Cc1ccc(C(=O)N2CCC(c3ncc[nH]3)CC2)cn1 yields cytotoxicity at 10 µM of -3.27

Sample CCc1cnc(N2CC[C@H]3[C@@H]2CCC(=O)N3c2cccnc2)nc1 ; cytotoxicity at 10 µM observed: 10.4

Consider Cc1nc(CCN2CCC(Oc3ccccc3F)CC2)cs1 . Its measured cytotoxicity at 10 µM is 6.9

Value of measured cytotoxicity at 10 µM for the entry CN(C)Cc1cc(=O)n2c(n1)CN(C(=O)Cc1ccsc1)CCC2 : -4.43

* * *

Hi there, I'd appreciate the recorded cytotoxicity at 10 µM for every entry that follows.
test: Toxicity liver stage against HepG2, at 10uM; format: cell-based; parameters: test concentration 10 uM, cell line HepG2-A16-CD81EGFP; settings: human, HepG2-A16-CD81EGFP cells; read-out: INHIBITION
// return numeric value only (unit: %, not printed)

Field cytotoxicity at 10 µM (entry CN(CCO)Cc1nnc(C2CCN(C(=O)c3cc[nH]c3)CC2)n1C ) reads 1.37

According to the records, this compound Cc1ncc(CN(C)Cc2nc3cc(Cl)ccc3n2C)s1 displays cytotoxicity at 10 µM of -42.9

Recorded cytotoxicity at 10 µM (compound O=C(c1ccccc1)N1C[C@H]2CC[C@@H](C1)N(S(=O)(=O)c1cccnc1)C2 ): -9.33

* * *

experiment: Toxicity liver stage against HepG2, at 10uM; type: cell-based; set-up: test concentration 10 uM, cell line HepG2-A16-CD81EGFP; settings: human, HepG2-A16-CD81EGFP cells; read-out: INHIBITION
measurement.kind: cytotoxicity at 10 µM (%)
The reply should contain only the number, in %.

# cytotoxicity at 10 µM (molecule: O=C(NCCn1ccnc1)c1ccn(-c2ccc(F)cc2)n1 ) is -1.03

cytotoxicity at 10 µM in this record for Cc1ccccc1CC(=O)N1CCCn2cncc2C1 : -1.1

Value of measured cytotoxicity at 10 µM for the entry Cc1n[nH]cc1CNC1(c2ccc(F)cc2)CCCC1 : 9.56

Entry CCN(C(C)=O)C(c1cccnc1)c1cc(C)cc(C)c1 (configuration not stated) ; cytotoxicity at 10 µM = 6.72

// cytotoxicity at 10 µM value for Cc1nc(C)n(C2CCCN(C(=O)c3csnn3)C2)n1 (configuration not stated) : -5.48

Memo: Cc1cc(C(F)(F)F)c2c(C3CCCN(C(=O)C4CC4)C3)noc2n1 (configuration not stated) , reported cytotoxicity at 10 µM: -25.1

Sample CC(C)CN1CCC2(CCN(Cc3nccs3)CC2)C1=O ; cytotoxicity at 10 µM observed: -5.77

* * *

assay: Toxicity liver stage against HepG2, at 10uM; type: cell-based; set-up: test concentration 10 uM, cell line HepG2-A16-CD81EGFP; settings: human, HepG2-A16-CD81EGFP cells; read-out: INHIBITION
measurement.kind: cytotoxicity at 10 µM (%)
Give the quantity in %, number only.

The reported value for O=C(NC[C@H]1OC[C@@H](NCc2ccccc2)[C@@H]1O)Nc1ccccc1 in terms of cytotoxicity at 10 µM is 1.97

Item: CN(C)S(=O)(=O)c1cccc(NC(=O)Cc2ccon2)c1 | cytotoxicity at 10 µM: 9.48

Per the records, this compound ( COc1ccc2nnc(CCC(=O)Nc3nc4c(s3)CCCC4)n2n1 ) has cytotoxicity at 10 µM equal to -6.98

* * *

Give cytotoxicity at 10 µM for every item shown.
test: Toxicity liver stage against HepG2, at 10uM; assay type: cell-based; design: test concentration 10 uM, cell line HepG2-A16-CD81EGFP; settings: human, HepG2-A16-CD81EGFP cells; read-out: INHIBITION
Put your answer as a value accompanied by its unit after it.

// cytotoxicity at 10 µM lookup, molecule = c1cc(CN2CCC3(CC2)COC(COCC2CC2)C3)co1 (configuration not stated) , result: -4.19%

Form: molecule = Cc1nc(CN2C[C@@H](NS(=O)(=O)N(C)C)[C@H](C(C)C)C2)cs1 ; cytotoxicity at 10 µM = -6.04%

// cytotoxicity at 10 µM value for COc1c(C(=O)N2CCC(CSc3ccccc3)C2)c(C)nn1C (configuration not stated) : 25.6%

Measured cytotoxicity at 10 µM of Cc1nn(C(C)C)cc1S(=O)(=O)N(C)Cc1nonc1C : 11.6%

Entry CCS(=O)(=O)N1CCCC(c2nccn2Cc2ccccn2)C1 (configuration not stated) ; cytotoxicity at 10 µM = -10.5%

Briefly, cytotoxicity at 10 µM measured for CCc1cc(NCCNC(C)=O)nc(N2CCOCC2)n1 : 2.38%

Data point: CCCn1cc(Cl)c(C(=O)N2C[C@@H](O)[C@H](Oc3ccccc3)C2)n1 ; cytotoxicity at 10 µM = 5.31%

* * *

test: Toxicity liver stage against HepG2, at 10uM; type: cell-based; set-up: test concentration 10 uM, cell line HepG2-A16-CD81EGFP; conditions: human, HepG2-A16-CD81EGFP cells; read-out: INHIBITION
I'd be grateful if you could share measured cytotoxicity at 10 µM for these entries.
Use % as the unit, but write only the number.

In plain terms, OCC(CO)N1CCCC(Cc2ccnc(Nc3ccccn3)c2)C1 (centres undefined) has a documented cytotoxicity at 10 µM of -13.5

cytotoxicity at 10 µM for CC(OCC1CC1)C(=O)Nc1ccn(Cc2ccccc2)n1 (centres undefined) is 11.9

// cytotoxicity at 10 µM lookup, molecule = Cc1cccc(NC(=O)c2csc(NCC(C)C)n2)n1 , result: -3.33

# cytotoxicity at 10 µM (molecule: O=C(NCC[S+]([O-])c1ccccc1)NCC(F)(F)F (centres undefined) ) is -1.09

// CCC(=O)N1CCc2[nH]cnc2C12CCN(CC1CCOC1)CC2 (centres undefined) : cytotoxicity at 10 µM value = -0.264

Just so you know, measured cytotoxicity at 10 µM for CCc1cnccc1C(=O)NC1CCN(C(=O)OC)CC1 came out at 9.09

cytotoxicity at 10 µM in this record for CC(=O)Nc1ccc(CNCc2cccnc2N(C)C)cc1 : -7.49

// cytotoxicity at 10 µM value for Cc1sc(CN)nc1-c1ccccc1 : -2.85

The molecule listed as CCOc1ccccc1C(CC(=O)O)NC(C)=O (centres undefined) has a reported cytotoxicity at 10 µM of -4.19

The molecule listed as CCOC1CCCN(C(=O)Nc2cnn(CC(F)F)c2)C1 (centres undefined) has a reported cytotoxicity at 10 µM of -1.84

// cytotoxicity at 10 µM value for O=C(NCc1cccnc1)NCC(O)c1cccc(C(F)(F)F)c1 (centres undefined) : -2.64

// cytotoxicity at 10 µM value for CCOc1ncccc1NC(=O)NCC(C)O (centres undefined) : -5.68

Form: molecule = CCCn1ccnc1CN1CCCC1c1cccc(-n2ccnc2)n1 (centres undefined) ; cytotoxicity at 10 µM = -22.2

Entry N#Cc1cn[nH]c1NCc1cc(Br)ccc1O ; cytotoxicity at 10 µM = -7.29

* * *

assay: Toxicity liver stage against HepG2, at 10uM; format: cell-based; parameters: test concentration 10 uM, cell line HepG2-A16-CD81EGFP; conditions: human, HepG2-A16-CD81EGFP cells; read-out: INHIBITION
Label Y when cytotoxicity at 10 µM is strictly below 10%; otherwise label N.

Q: Bench note: check whether CCOCCCNC(=O)Cc1cccc(F)c1 shows cytotoxicity at 10 µM below 10%
Ans: N

Q: In plain terms, does COc1cc(CNC(=O)NCCCF)cc(Br)c1OC come in under 10% for cytotoxicity at 10 µM?
Ans: N

Q: # TODO verify cytotoxicity at 10 µM < 10% strictly for this molecule: COCc1nn(Cc2ccc(Cl)s2)c(=O)o1
Ans: Y

Q: Decide: cytotoxicity at 10 µM of NC(=O)CN1CCC(NC(=O)N2CCCC2c2ccncc2)CC1 (stereo unspecified) strictly below 10%?
Ans: N

Q: For O=C(c1cc(C2CC2)n[nH]1)N1C[C@H]2CC[C@](O)(c3ccccc3F)[C@H]2C1 , is the recorded cytotoxicity at 10 µM below the cut-off of 10%?
Ans: Y

Q: Does the reported cytotoxicity at 10 µM of the following molecule sit strictly below 10%? OCC(CO)Nc1ccc2ccc(Cl)c(Cl)c2n1
Ans: Y

Q: For O=C(O)[C@@H]1CN(C(=O)c2ccc(O)cc2)C[C@H]1c1cccc(F)c1 , is the recorded cytotoxicity at 10 µM below the cut-off of 10%?
Ans: Y

Q: Say whether its cytotoxicity at 10 µM is strictly beneath 10%. Entry: CCCC(=O)N1CCC(c2ncc3c(n2)CCNC3)CC1
Ans: Y

Q: Determine if O=C(C1CCC1)N1CCC2(COCc3cnc(-c4cccnc4)nc32)C1 (stereo unspecified) shows cytotoxicity at 10 µM strictly lower than 10%.
Ans: Y

Q: # strict comparison: is reported cytotoxicity at 10 µM < 10%? input = Cc1ccc(CNCc2nnc3n2CCCC3C(F)(F)F)s1 (stereo unspecified)
Ans: N

Q: is_below(cytotoxicity at 10 µM, 10%) for O=C(CCCn1cnc2ccccc2c1=O)Nc1nc[nH]n1 ?
Ans: Y

Q: # TODO verify cytotoxicity at 10 µM < 10% strictly for this molecule: CN(Cc1ccc2nsnc2c1)CC1(O)CNCCOC1 (stereo unspecified)
Ans: Y

Q: Is the reported cytotoxicity at 10 µM for Cc1ccc(NC2CCCN(CCCc3ccccc3)C2)nn1 (stereo unspecified) strictly below 10%?
Ans: Y

Q: Input O=S(=O)(C1CC1)N1CCO[C@@H]2CN(Cc3cccs3)C[C@@H]2C1 ; condition: cytotoxicity at 10 µM strictly below 10%. Does it hold?
Ans: Y

Q: Does this molecule meet the criterion cytotoxicity at 10 µM < 10%? O=C1NCc2ccccc2CC12CCCN(Cc1ccsc1)C2 (stereo unspecified)
Ans: N

Q: Please determine if Cc1ccc2c(-c3nc4c([nH]3)CCNC4C(=O)O)cccc2n1 (stereo unspecified) is below 10% in terms of cytotoxicity at 10 µM.
Ans: Y

Q: I wonder whether CCCN1CCC=C(C2c3nc[nH]c3CCN2C(=O)c2ccco2)C1 (stereo unspecified) has cytotoxicity at 10 µM below 10%. Can you tell?
Ans: Y

Q: Determine whether this molecule shows cytotoxicity at 10 µM lower than 10% (ties excluded): O=C(c1ccnnc1)N1CCc2ncnc(C3CCOC3)c2CC1 (stereo unspecified)
Ans: Y
